tested.on: TNF-α (Homo sapiens)
Construct: purchased R&D 210-TA-020/CF
experiment.description: TNF-α Induced HEK Blue Cellular Assay (secreted alkaline phosphatase expression, QUANTI-Blue)
Type: cell-based
experimental.context: HEK Blue TNFα reporter cells; TNF-α 100 μg/ml; 24 hrs at 37° C.; inhibition of secreted alkaline phosphatase; read-out: IC50 value
IC50 overview

# molecule, IC50
rows = [
    ("[2H]C([2H])([2H])N1C(=O)c2cccc(OC(F)F)c2[C@H]2C[C@@H]1c1nc3ccc(C#CCOC4CCN(C)CC4)cc3n12 [Example 115]", "< 100 nM"),
    ("[2H]C([2H])([2H])N1C(=O)c2cccc(OC(F)F)c2[C@H]2C[C@@H]1c1nc3ccc(C#Cc4cncnc4)cc3n12 [Example 11]", "< 100 nM"),
    ("[2H]C([2H])([2H])N1C(=O)c2cccc(OC(F)F)c2[C@H]2C[C@@H]1c1nc3ccc(C#CCCN4CC(C)(C#N)C4)cc3n12 [Example 154]", "< 100 nM"),
    ("[2H]C([2H])([2H])N1C(=O)c2cccc(OC(F)F)c2[C@H]2C[C@@H]1c1nc3ccc(C#CCC4CC4)cc3n12 [Example 105]", "< 100 nM"),
    ("[2H]C([2H])([2H])N1C(=O)c2cccc(OC(F)F)c2[C@H]2C[C@@H]1c1nc3ccc(C#CC4CC(C)(C#N)C4)cc3n12 (stereo partly shown) [Example 159]", "< 100 nM"),
]

q: Find the measured IC50: item [2H]C([2H])([2H])N1C(=O)c2cccc(OC(F)F)c2[C@H]2C[C@@H]1c1nc3ccc(C#CC4(O)CNC4)cc3n12 [Example 251] , target or system TNF-α (Homo sapiens).
a: 10000 to 30000 nM

q: Find the measured IC50: item [2H]C([2H])([2H])N1C(=O)c2cccc(OC(F)F)c2[C@H]2C[C@@H]1c1nc3ccc(C#CCCN)cc3n12 [Example 123] , target or system TNF-α (Homo sapiens).
a: 100 to 1000 nM

q: Find the measured IC50: item [2H]C([2H])([2H])N1C(=O)c2cccc(OC(F)F)c2[C@H]2C[C@@H]1c1nc3ccc(C#Cc4cnn(CCO)c4)cc3n12 [Example 10] , target or system TNF-α (Homo sapiens).
a: < 100 nM

q: Find the measured IC50: item [2H]C([2H])([2H])N1C(=O)c2cccc(OC(F)F)c2[C@H]2C[C@@H]1c1nc3ccc(C#CC#N)cc3n12 [Example 262] , target or system TNF-α (Homo sapiens).
a: < 100 nM

q: Find the measured IC50: item [2H]C([2H])([2H])N1C(=O)c2cccc(OC(F)F)c2[C@H]2C[C@@H]1c1nc3ccc(C#CC4CCOC4)cc3n12 (stereo partly shown) [Example 102] , target or system TNF-α (Homo sapiens).
a: < 100 nM

q: Find the measured IC50: item [2H]C([2H])([2H])N1C(=O)c2cccc(OC(F)F)c2[C@H]2C[C@@H]1c1nc3ccc(C#Cc4ccc(P(C)(C)=O)nc4)cc3n12 [Example 112] , target or system TNF-α (Homo sapiens).
a: < 100 nM

q: Find the measured IC50: item [2H]C([2H])([2H])N1C(=O)c2cccc(OC(F)F)c2[C@H]2C[C@@H]1c1nc3ccc(C#CCOc4ccccc4)cc3n12 [Example 79] , target or system TNF-α (Homo sapiens).
a: 100 to 1000 nM

q: Find the measured IC50: item [2H]C([2H])([2H])N1C(=O)c2cccc(OC(F)F)c2[C@H]2C[C@@H]1c1nc3ccc(C#Cc4cn[nH]c4)cc3n12 [Example 14] , target or system TNF-α (Homo sapiens).
a: < 100 nM

###

tested.on: TNF-α (Homo sapiens)
Construct: purchased R&D 210-TA-020/CF
experiment.description: TNF-α Induced HEK Blue Cellular Assay (secreted alkaline phosphatase expression, QUANTI-Blue)
Format: cell-based
experimental.context: HEK Blue TNFα reporter cells; TNF-α 100 μg/ml; 24 hrs at 37° C.; inhibition of secreted alkaline phosphatase; read-out: IC50 value
pIC50: −log10 of the molar value.
endpoint: pIC50

Reference set, count: 5
# given.smiles, measured.value
data = [
    ("[2H]C([2H])([2H])N1C(=O)c2cccc(OC(F)F)c2[C@H]2C[C@@H]1c1nc3ccc(C#CC(C)(C)N)cc3n12", "4.52 to 5.00"),
    ("[2H]C([2H])([2H])N1C(=O)c2cccc(OC(F)F)c2[C@H]2C[C@@H]1c1nc3ccc(C#CCCOC)cc3n12", "> 7.00"),
    ("[2H]C([2H])([2H])N1C(=O)c2cccc(OC(F)F)c2[C@H]2C[C@@H]1c1nc3ccc(C#CC4CCOCC4)cc3n12", "> 7.00"),
    ("[2H]C([2H])([2H])N1C(=O)c2cccc(OC(F)F)c2[C@H]2C[C@@H]1c1nc3ccc(C#CC4CN(C(=O)C5CC5)C4)cc3n12", "> 7.00"),
    ("[2H]C([2H])([2H])N1C(=O)c2cccc(OC(F)F)c2[C@H]2C[C@@H]1c1nc3ccc(C#CCN(CC)CC)cc3n12", "> 7.00"),
]

q: Which measured pIC50 value corresponds to [2H]C([2H])([2H])N1C(=O)c2cccc(OC(F)F)c2[C@H]2C[C@@H]1c1nc3ccc(C#CCCC(F)F)cc3n12 ?
a: > 7.00

###

tested.on: TNF-α (Homo sapiens, UniProt P01375)
Construct: purchased R&D 210-TA-020/CF
Sequence (P01375 77-233 limits assumed): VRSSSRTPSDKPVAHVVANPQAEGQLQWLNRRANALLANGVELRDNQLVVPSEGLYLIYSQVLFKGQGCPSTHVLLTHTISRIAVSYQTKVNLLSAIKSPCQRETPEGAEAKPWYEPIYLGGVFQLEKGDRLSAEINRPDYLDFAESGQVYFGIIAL
experiment.description: TNF-α Induced HEK Blue Cellular Assay (secreted alkaline phosphatase expression, QUANTI-Blue)
Assay type: cell-based
experimental.context: HEK Blue TNFα reporter cells; TNF-α 100 μg/ml; 24 hrs at 37° C.; inhibition of secreted alkaline phosphatase; read-out: IC50 value
pIC50: −log10 of the molar value.
pIC50 overview

Reference set, count: 5
# molecule, pIC50
records = [
    ("[2H]C([2H])([2H])N1C(=O)c2cccc(OC(F)F)c2[C@H]2C[C@@H]1c1nc3ccc(C#C[C@@H](C)N)cc3n12", "> 7.00"),
    ("[2H]C([2H])([2H])N1C(=O)c2cccc(OC(F)F)c2[C@H]2C[C@@H]1c1nc3ccc(C#CC4CN(CC)C4)cc3n12", "> 7.00"),
    ("[2H]C([2H])([2H])N1C(=O)c2cccc(OC(F)F)c2[C@H]2C[C@@H]1c1nc3ccc(C#CC4CN(C(=O)C5CC5(F)F)C4)cc3n12 (stereo partly drawn)", "4.52 to 5.00"),
    ("CC1C(C#Cc2ccc3nc4n(c3c2)[C@@H]2C[C@H]4N(C)C(=O)c3cccc(OC(F)F)c32)CN1C1COC1 (single isomer, unassigned)", "> 7.00"),
    ("[2H]C([2H])([2H])N1C(=O)c2cccc(OC(F)F)c2[C@H]2C[C@@H]1c1nc3ccc(C#Cc4cnc(C)cn4)cc3n12", "> 7.00"),
]

Attention now turns to another entry.
q: Find the measured pIC50: item [2H]C([2H])([2H])N1C(=O)c2cccc(OC(F)F)c2[C@H]2C[C@@H]1c1nc3ccc(C#CCC(=O)OC)cc3n12 , target or system TNF-α (Homo sapiens, UniProt P01375).
a: 4.52 to 5.00

###

tested.on: TNF-α (Homo sapiens, UniProt P01375)
Construct: purchased R&D 210-TA-020/CF
experiment.description: TNF-α Induced HEK Blue Cellular Assay (secreted alkaline phosphatase expression, QUANTI-Blue)
Assay type: cell-based
experimental.context: HEK Blue TNFα reporter cells; TNF-α 100 μg/ml; 24 hrs at 37° C.; inhibition of secreted alkaline phosphatase; read-out: IC50 value
pIC50: −log10 of the molar value.
endpoint: pIC50

Reference set, count: 2
# compound, tested.on, pIC50
data = [
    ("[2H]C([2H])([2H])N1C(=O)c2cccc(OC(F)F)c2[C@H]2C[C@@H]1c1nc3ccc(C#CC4(C)CCOC4)cc3n12 (stereo partly drawn)", "TNF-α (Homo sapiens, UniProt P01375)", "6.00 to 7.00"),
    ("[2H]C([2H])([2H])N1C(=O)c2cccc(OC(F)F)c2[C@H]2C[C@@H]1c1nc3ccc(C#CCN(C)CC)cc3n12", "TNF-α (Homo sapiens, UniProt P01375)", "6.00 to 7.00"),
]

Attention now turns to another entry.
q: Which measured pIC50 value corresponds to [2H]C([2H])([2H])N1C(=O)c2cccc(OC(F)F)c2[C@H]2C[C@@H]1c1nc3ccc(C#CCN4CC[C@H](F)C4)cc3n12 ?
a: > 7.00

###

IC50 overview
tested.on: TNF-α (Homo sapiens)
Construct: purchased R&D 210-TA-020/CF
experiment.description: TNF-α Induced HEK Blue Cellular Assay (secreted alkaline phosphatase expression, QUANTI-Blue)
Assay type: cell-based
experimental.context: HEK Blue TNFα reporter cells; TNF-α 100 μg/ml; 24 hrs at 37° C.; inhibition of secreted alkaline phosphatase; read-out: IC50 value

# compound, IC50
measured = [
    ("[2H]C([2H])([2H])N1C(=O)c2cccc(OC(F)F)c2[C@H]2C[C@@H]1c1nc3ccc(C#CC(=O)NC(C)C)cc3n12", "< 0.1 µM"),
    ("[2H]C([2H])([2H])N1C(=O)c2cccc(OC(F)F)c2[C@H]2C[C@@H]1c1nc3ccc(C#CCCC(C)C)cc3n12", "< 0.1 µM"),
]

Attention now turns to another entry.
q: Find the measured IC50: item [2H]C([2H])([2H])N1C(=O)c2cccc(OC(F)F)c2[C@H]2C[C@@H]1c1nc3ccc(C#CC(O)CC)cc3n12 (single isomer, unassigned) [Example 208] , target or system TNF-α (Homo sapiens).
a: 10 to 30 µM
